B1: Osa-1-4 twister ribozyme (parent)
chain: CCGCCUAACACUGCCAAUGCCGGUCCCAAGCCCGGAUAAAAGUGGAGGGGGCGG

Variants of: B1
protocol: self-cleavage, relative activity (ratio to wild type); higher = more cleavage; co-transcriptional
The threshold is inclusive: self-cleavage of exactly 0.1 counts as satisfied; values below receive not satisfied.

Look over these answered cases.
mutation-list: C15U G48A
assigned-label: not satisfied
--
mutation-list: A10C C11G
assigned-label: not satisfied
--
mutation-list: C52A G44A
assigned-label: satisfied
--
mutation-list: U24A U37A
assigned-label: satisfied
--
mutation-list: C20U C31G
assigned-label: satisfied
--
mutation-list: C31U G34U
assigned-label: satisfied
--
mutation-list: A16G C33U
assigned-label: satisfied
--
mutation-list: C11U G42A
assigned-label: satisfied

Does the variant C27A G13A have recorded self-cleavage that is 0.1 or more? not satisfied

Textbook exercise: given the entry A8C G19A , state whether its self-cleavage is greater than or equal to 0.1. not satisfied

Entry A10U G22C : is its self-cleavage no less than 0.1? not satisfied

State whether the measured self-cleavage reaches 0.1, counting equality as reaching it, for C20G C25A not satisfied

Is reported self-cleavage greater than or equal to 0.1 here: C52G G23A satisfied

I'd appreciate it if you could say whether A28G G45U has self-cleavage at least equal to 0.1. not satisfied

State whether the measured self-cleavage reaches 0.1, counting equality as reaching it, for C11G C25U satisfied

Say whether G22C G45A shows self-cleavage of 0.1 or more. not satisfied
